These entries and their values trace back to ChEMBL document CHEMBL1140882.

Each entry below carries its reported EC50.
Tested on: Human immunodeficiency virus 1
Experiment: Antiviral activity against HIV1 replication in human C8166 cells by ELISA
Format: functional, organism-based
Conditions: Human immunodeficiency virus 1, C8166
Structures can show the parent of a compound that is named as a salt.
assay_readout: EC50

{"columns": ["compound", "reading"],
 "data": [
  ["CC(C)=C/C=C1\\C[C@H](O)[C@@H]2O[C@]2(CC=C(C)C)C1=O", "90.4 µM"],
  ["CC(C)(C)NC(=O)[C@@H]1CN(Cc2cccnc2)CCN1C[C@@H](O)C[C@@H](Cc1ccccc1)C(=O)N[C@H]1c2ccccc2C[C@H]1O [INDINAVIR SULFATE]", "0.00881 µM"],
  ["C=C(C)/C=C1/C(=C2\\C[C@H](O)[C@@H]3O[C@]3(CC=C(C)C)[C@@H]2O)C=C(C)C[C@@]12C[C@H](O)[C@@H]1O[C@]1(CC=C(C)C)C2=O", "64 µM"],
  ["COC(=O)c1cc(OC)cc2oc3c(CC(=O)[C@@]4(O)C[C@H](O)[C@@H]5O[C@]5(CC=C(C)C)[C@@H]4O)c(C)c(CC(C)=O)c(O)c3c(=O)c12", "93.7 µM"]
]}

###

Overview of reported CC50 at 96 h across a group of compounds:
Experiment: Cytotoxicity against human C8166 cells after 4 days by MTT assay
Format: cell-based

{"columns": ["structure_smiles", "CC50 at 96 h"],
 "data": [
  ["C=C(C)/C=C1/C(=C2\\C[C@H](O)[C@@H]3O[C@]3(CC=C(C)C)[C@@H]2O)C=C(C)C[C@@]12C[C@H](O)[C@@H]1O[C@]1(CC=C(C)C)C2=O", "> 200 µM"],
  ["CC(C)=C/C=C1\\C[C@H](O)[C@@H]2O[C@]2(CC=C(C)C)C1=O", "> 200 µM"],
  ["COC(=O)c1cc(OC)cc2oc3c(CC(=O)[C@@]4(O)C[C@H](O)[C@@H]5O[C@]5(CC=C(C)C)[C@@H]4O)c(C)c(CC(C)=O)c(O)c3c(=O)c12", "> 200 µM"]
]}
